System: A2B5+ OPCs
Assay Info: OPC differentiation assay
Format: cell-based, Sprague Dawley rats
Condition Context: 20 micromolar, 3-day incubation; symbols not defined in the patent
Measurement Label: activity in the OPC assay at 20 micromolar

| Query Smiles | Result |
| --- | --- |
| CC1(C(=O)O)CCN(Cc2ccc3cc(O[C@H]4CC[C@H](C(C)(C)C)CC4)ccc3c2)CC1 | + to ++++ |
| CC(C)(C)[C@H]1CC[C@H](Oc2ccc3cc(CN4CCC(O)(C(=O)O)CC4)ccc3c2)CC1 | + to ++++ |
| O=C(O)C1CCN(Cc2ccc3cc(OC4CCC5(CCCCC5)CC4)ccc3c2)CC1 | + to ++++ |
| CC[C@H]1CC[C@H](Oc2ccc3cc(CN4CCC(C(=O)O)CC4)ccc3c2)CC1 | + to ++++ |
